# Assay protocol: Pharmacokinetic experiment in mice after intragastric administration (plasma and lung tissue, LC/MS/MS)
# Format: in vivo
# Assay conditions: ICR, mouse, lung, oral, intragastric administration at 20 mg/kg, read-out: Lung tissue drug concentration at 6 h
Classify by measured concentration at 6 h: Fulfilled if it is equal to or exceeds 20000 ng/g, Not fulfilled if it is smaller.

Check this compound for concentration at 6 h at or above 20000 ng/g: N[C@H]1CCN(c2nc(N3CCS(=O)(=NCC4CCO4)c4ccccc4C3)nc3ccc(C(F)F)cc23)C1 (some centres unmarked)
Not fulfilled

Check this compound for concentration at 6 h at or above 20000 ng/g: Cc1ccc2nc(N3CCS(=O)(=NC4CCOC4)c4ccccc4C3)nc(N3CC[C@@H](N)C3)c2c1 (some centres unmarked)
Not fulfilled

Check this compound for concentration at 6 h at or above 20000 ng/g: Cc1ccc2nc(N3CCS(=O)(=NC4CC4)c4ccccc4C3)nc(N3CC[C@@H](N)C3)c2c1 (some centres unmarked)
Fulfilled

Check this compound for concentration at 6 h at or above 20000 ng/g: Cc1ccc2nc(N3CCS(=O)(=NC4CCOC4)c4ccccc4C3)nc(N3CC[C@H](N)C3)c2c1 (some centres unmarked)
Not fulfilled

Check this compound for concentration at 6 h at or above 20000 ng/g: NC1CN(c2nc(N3CCS(=O)(=NC4CC4)c4ccccc4C3)nc3ccc(C(F)F)cc23)C1 (centres unmarked)
Fulfilled

Check this compound for concentration at 6 h at or above 20000 ng/g: Cc1ccc2nc(N3CCS(=O)(=NC4CC4)c4ccccc4C3)nc(N3CC[C@H](N)C3)c2c1 (some centres unmarked)
Fulfilled

Check this compound for concentration at 6 h at or above 20000 ng/g: Cc1ccc2nc(N3CCS(=O)(=NC4CC4)c4ccccc4C3)nc(NCC3(N)COC3)c2c1C (centres unmarked)
Not fulfilled

Check this compound for concentration at 6 h at or above 20000 ng/g: N[C@H]1CCN(c2nc(N3CCS(=O)(=NC4CC4)c4ccccc4C3)nc3ccc(C(F)F)cc23)C1 (some centres unmarked)
Fulfilled
